# study-system: Human complement C1s enzyme (Homo sapiens (Human), UniProt P09871)
# Sequence (P09871 438-688 limits assumed): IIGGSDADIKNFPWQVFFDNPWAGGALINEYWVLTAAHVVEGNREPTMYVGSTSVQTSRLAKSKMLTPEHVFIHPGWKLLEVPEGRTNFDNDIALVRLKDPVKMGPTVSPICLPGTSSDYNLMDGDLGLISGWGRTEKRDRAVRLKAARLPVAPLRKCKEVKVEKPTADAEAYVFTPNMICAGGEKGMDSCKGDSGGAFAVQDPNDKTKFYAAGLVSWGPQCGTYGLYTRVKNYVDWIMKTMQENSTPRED
# Sequence (P09871 16-437 partner limits assumed): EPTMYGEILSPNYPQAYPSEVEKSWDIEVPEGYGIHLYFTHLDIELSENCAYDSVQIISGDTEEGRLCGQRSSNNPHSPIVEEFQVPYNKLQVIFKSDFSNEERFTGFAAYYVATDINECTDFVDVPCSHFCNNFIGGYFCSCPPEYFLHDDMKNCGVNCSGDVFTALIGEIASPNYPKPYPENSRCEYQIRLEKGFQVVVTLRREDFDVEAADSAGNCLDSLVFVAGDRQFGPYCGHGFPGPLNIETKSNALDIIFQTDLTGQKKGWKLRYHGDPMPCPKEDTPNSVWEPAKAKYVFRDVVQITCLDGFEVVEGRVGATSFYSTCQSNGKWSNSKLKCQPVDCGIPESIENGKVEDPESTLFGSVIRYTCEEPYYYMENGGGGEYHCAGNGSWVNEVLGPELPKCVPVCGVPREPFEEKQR
# protocol-description: Human C1s enzyme assay
# Format: biochemical
# study-conditions: Human C1s enzyme assay of Example 3; read-out: IC50 (Stars)
assay-endpoint: IC50

Examples with their reported IC50 follow.
# entry-smiles, assay-endpoint, result
rows = [
    ("C[C@@H](NC(=O)[C@@H]1C[C@@H](OC(F)F)CN1C(=O)CNC(=O)c1ccc(Oc2ccc(C(F)F)cc2)cc1)c1cc(C(=N)N)cs1", "IC50", "< 100 nM"),
    ("Cc1cc(C(=O)NCC(=O)N2[C@H]3C[C@@]3(C)C[C@H]2C(=O)N[C@H](C)c2ccc(C(=N)N)s2)ccc1Oc1ccccc1", "IC50", "< 100 nM"),
    ("Nc1ncccc1-c1csc(CNC(=O)[C@@H]2CC3(CN2C(=O)CNC(=O)c2ccc(Oc4ccc(F)cc4)cc2)OCCO3)c1", "IC50", "> 1000 nM"),
]

Quick one: give measured IC50 for `N=C(N)c1csc(CNC(=O)[C@@H]2CC3(CN2C(=O)CNC(=O)c2ccc(-c4ccc(F)cc4F)cc2)OCCO3)c1`
< 100 nM

Let me know recorded IC50 for `COC[C@@]1(F)C[C@@H](C(=O)N[C@H](C)c2cc(C(=N)N)cs2)N(C(=O)CNC(=O)c2ccc(Oc3ccc(C)cc3)cc2)C1` , thanks.
< 100 nM

Read off the recorded IC50 for `C[C@@H](NC(=O)[C@@H]1CC2(CN1C(=O)CNC(=O)c1ccc3c(c1)-c1ccccc1C3(F)F)OCCO2)c1cc(/C(N)=N\C(=O)Oc2ccccc2)cs1`
< 100 nM
